Where these numbers come from: patent US5776959A

Tested on: maximal electroshock (MES) seizures in mice
Test: Maximal Electroshock Seizure Test (MES)
Assay type: in vivo
Details: Mus musculus, 0.5 h, ip, 30 min before electroshock 50 mA 0.2 sec, read-out: Convulsant Challenge ED50, MES
Listed compounds paired with reported ED50
Reply with just the number (in mg/kg).

Query CCC1(Cc2ccccc2)CCCNC1=O (stereo not drawn) yields ED50 of 79

Query CC1(Cc2ccccc2)CCCNC1=O (stereo not drawn) yields ED50 of 49

====

Assay: Convulsant activity (observation of seizures in injected mice)
Settings: mouse, in vivo, read-out: Convulsive Activity CD50
reported.property: CD50 (convulsant dose, 50%)

CC1(C)CCC(=O)N1 = 387 mg/kg
CCC1CC(C)(C)NC1=O (stereo not shown) = 106 mg/kg
CC1(C)CNC(=O)C1(C)C = 32 mg/kg

CD50 (convulsant dose, 50%) reading for CCC1(CC)CC(C)(C)NC1=O : 75 mg/kg

====

Assay: Rotorod Test for Toxicity (neurotoxicity)
Type: in vivo, mouse
Conditions: mouse, in vivo, mice, ip, 30 min
The following compounds are listed with their measured TD50 at 0.5 h values.
Unit mg/kg implied. Number only.

CCC1(C)CCCNC1=O (centres unmarked) = 382
CCC1(CC)CCCNC1=O = 177
O=C1NCCCC1Cc1ccccc1 (centres unmarked) = 294
CCC1CCCNC1=O (centres unmarked) [3-Ethyl-2-Piperidinone, reference compound] = 382

Moving on to the next compound.
// TD50 at 0.5 h lookup, compound = CCC1(C)CCN(C)C1=O (centres unmarked) , result: 520

====

Assay: Rotorod Test for Toxicity (neurotoxicity)
Type: in vivo, mouse
Details: mouse, in vivo, mice, ip, 30 min
The reader will find reported TD50 at 0.5 h values listed item by item below.
Give the number; mg/kg is assumed, so skip it.

Some molecules with recorded TD50 at 0.5 h:
CC1(C)CCNC1=O [3,3-Dimethyl-2-pyrrolidinone, 3,3-dimethyl-2-pyrrolidinone, reference compound] = 900
CCC1(Cc2ccccc2)CCCNC1=O (centres unmarked) = 102

# ---- query molecule ----
Record CC1(Cc2ccccc2)CCCNC1=O (centres unmarked) . Reported TD50 at 0.5 h: 131

====

Tested on: maximal electroshock (MES) seizures in mice
Experiment: Maximal Electroshock Seizure Test (MES)
Assay type: in vivo
Conditions: Mus musculus, 0.5 h, ip, 30 min before electroshock 50 mA 0.2 sec, read-out: Convulsant Challenge ED50, MES
Experimental: Maximal Electroshock Seizure Test (MES) Test compounds were dissolved in 30% polyethylene glycol and given by intraperitoneal (ip) injections in a volume of 0.01 mL/g of body weight. […] Corneal electrodes were applied to the eyes, and an electrical stimulus consisting of a 60-Hz alternating current of 50 mA was delivered for 0.2 sec. The animals were held by hand and released at the time of stimulation for observation of the seizure. […]
Entries and their measured ED50 follow.

# count of solved cases: 3
CC1(C)CCNC1=O [3,3-Dimethyl-2-pyrrolidinone, 3,3-dimethyl-2-pyrrolidinone, reference compound] = > 600 mg/kg
CC1CCCNC1=O (stereo not shown) [3-Methyl-2-Piperidinone, reference compound] = > 600 mg/kg
CCC1(C)CNC(=O)C1 (stereo not shown) [4-Ethyl-4-Methyl-2-pyrrolidinone, 4-ethyl-4-methyl-2-pyrrolidinone, reference compound] = > 300 mg/kg

For the next question, use this compound.
# ED50 measured on maximal electroshock (MES) seizures in mice for item O=C1NCCC1Cc1ccccc1 (stereo not shown) [3-Phenylmethyl-2-pyrrolidinone, 3-phenylmethyl-2-pyrrolidinone] = 41 mg/kg

====

Test: Rotorod Test for Toxicity (neurotoxicity)
Format: in vivo, mouse
Conditions: mouse, in vivo, mice, ip, 30 min
Recorded measurements of TD50 at 0.5 h, one per entry

Reference set, count: 2
CC1CCCNC1=O (stereo not drawn) [3-Methyl-2-Piperidinone, reference compound] = > 600 mg/kg
CCC1(C)CNC(=O)C1 (stereo not drawn) [4-Ethyl-4-Methyl-2-pyrrolidinone, 4-ethyl-4-methyl-2-pyrrolidinone, reference compound] = > 300 mg/kg

Just so you know, measured TD50 at 0.5 h for O=C1CCCCN1 [2-Piperidinone, reference compound] came out at > 600 mg/kg

====

Below, each of the compounds is paired with its reported ED50 value.
Test system: maximal electroshock (MES) seizures in mice
Experiment: Maximal Electroshock Seizure Test (MES)
Assay type: in vivo
Settings: Mus musculus, 0.5 h, ip, 30 min before electroshock 50 mA 0.2 sec, read-out: Convulsant Challenge ED50, MES
Kindly provide the numeric value in mg/kg only, without the unit symbol.

The following compounds have reported results that may help.
O=C1NCCCC1Cc1ccccc1 (stereo not drawn) = 42
CCC1(CC)CCNC1=O = 174
CCC1(C)CCCNC1=O (stereo not drawn) = 198

Form field ED50 for item CCC1(CC)CCCNC1=O on maximal electroshock (MES) seizures in mice: 56
